# Target under test: T1, αvβ3 integrin on cells (U87MG glioblastoma cells; K562-αvβ3 cells) (UniProt P06756 31-1048; P05106 27-788)
# T1 construct: whole, on cells; also called cell surface αvβ3 integrin
# T1 sequence (P06756 31-1048, chain 1 of 2): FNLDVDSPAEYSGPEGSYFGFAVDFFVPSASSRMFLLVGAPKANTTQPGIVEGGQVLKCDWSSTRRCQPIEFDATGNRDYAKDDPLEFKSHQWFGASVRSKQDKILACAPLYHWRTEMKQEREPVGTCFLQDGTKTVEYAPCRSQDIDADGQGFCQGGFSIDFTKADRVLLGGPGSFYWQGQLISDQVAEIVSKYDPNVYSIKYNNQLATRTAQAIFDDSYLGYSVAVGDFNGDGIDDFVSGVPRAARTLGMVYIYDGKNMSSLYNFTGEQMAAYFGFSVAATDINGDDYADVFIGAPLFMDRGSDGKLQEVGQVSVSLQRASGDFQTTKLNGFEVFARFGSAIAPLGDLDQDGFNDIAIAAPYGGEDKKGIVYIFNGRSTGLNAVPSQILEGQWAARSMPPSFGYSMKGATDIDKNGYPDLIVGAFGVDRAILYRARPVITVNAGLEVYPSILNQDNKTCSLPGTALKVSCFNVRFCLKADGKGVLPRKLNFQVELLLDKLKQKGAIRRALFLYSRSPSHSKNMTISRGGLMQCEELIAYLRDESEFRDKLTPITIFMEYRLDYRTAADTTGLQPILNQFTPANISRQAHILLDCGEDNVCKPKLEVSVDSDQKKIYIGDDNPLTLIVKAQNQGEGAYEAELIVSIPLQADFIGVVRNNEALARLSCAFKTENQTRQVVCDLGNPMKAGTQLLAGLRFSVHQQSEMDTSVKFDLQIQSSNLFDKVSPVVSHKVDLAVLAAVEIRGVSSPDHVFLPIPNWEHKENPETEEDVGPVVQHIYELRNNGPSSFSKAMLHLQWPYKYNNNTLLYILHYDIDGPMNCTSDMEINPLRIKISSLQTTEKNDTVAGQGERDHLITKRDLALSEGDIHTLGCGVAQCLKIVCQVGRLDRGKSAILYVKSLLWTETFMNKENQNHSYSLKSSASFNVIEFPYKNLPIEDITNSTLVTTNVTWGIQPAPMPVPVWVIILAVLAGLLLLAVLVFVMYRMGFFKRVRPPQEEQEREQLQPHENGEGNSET
# T1 sequence (P05106 27-788, chain 2 of 2): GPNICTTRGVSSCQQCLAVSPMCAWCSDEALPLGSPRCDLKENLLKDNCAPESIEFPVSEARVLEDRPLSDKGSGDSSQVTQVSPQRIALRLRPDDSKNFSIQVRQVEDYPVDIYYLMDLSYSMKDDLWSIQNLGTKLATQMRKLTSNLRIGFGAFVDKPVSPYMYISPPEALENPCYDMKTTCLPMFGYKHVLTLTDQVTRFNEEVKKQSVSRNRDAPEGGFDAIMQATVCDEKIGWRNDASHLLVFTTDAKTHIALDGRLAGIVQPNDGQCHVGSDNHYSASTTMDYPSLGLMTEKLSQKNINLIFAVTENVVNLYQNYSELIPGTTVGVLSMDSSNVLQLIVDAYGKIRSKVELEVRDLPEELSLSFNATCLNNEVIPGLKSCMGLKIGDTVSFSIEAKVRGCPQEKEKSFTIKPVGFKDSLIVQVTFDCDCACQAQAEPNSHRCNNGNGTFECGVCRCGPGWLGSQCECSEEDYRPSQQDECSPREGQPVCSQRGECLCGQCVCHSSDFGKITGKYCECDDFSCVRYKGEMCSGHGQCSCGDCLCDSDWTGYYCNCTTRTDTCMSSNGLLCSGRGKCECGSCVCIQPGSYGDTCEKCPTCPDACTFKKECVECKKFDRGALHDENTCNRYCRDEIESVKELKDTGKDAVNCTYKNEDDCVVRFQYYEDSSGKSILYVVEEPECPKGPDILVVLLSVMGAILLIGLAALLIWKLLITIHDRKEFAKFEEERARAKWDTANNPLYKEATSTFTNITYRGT
# Experimental protocol: competition of synthetic 7C by recombinant 7C on U87MG cells, performed analogously
Measurement type: pIC50
Please note pIC50 is a logarithmic value: minus log10 of concentration in mol/L. Answer with that number alone.

[ask] # lookup: pIC50 of recombinant AgRP peptide 7C (FLAG and hexahistidine tagged) (peptide) DYKDDDDKGCVRLHESCLGQQVPCCDPAATCYCYGRGDNDLRCYCRHHHHHH
[reply] 7.64

These measurements were taken from patent US20210023171A1.
